Measured values drawn from ChEMBL document CHEMBL4680102 for this set.

- testProtocol: Distribution coefficient, logD of compound
- Format: physicochemical
- testParameters: octanol/water
In this section, each of the compounds is paired with its reported logD.
// print number alone

{"columns": ["chemSmiles", "val"],
 "data": [
  ["Cc1ccccc1-c1cc(C(=O)NCCCN2CCCC2)c2cn[nH]c2n1", 1.19],
  ["O=C(NCCCN1CCCC1)c1cncc(-c2ccccc2OC2CN(CCc3ccc(Cl)c(Cl)c3)C2)c1", 2.4]
]}

// below: logD requested for another compound
Fill blank: measured logD of the compound "COc1cccc(CNC2CCN(c3ccccc3-c3cncc(C(=O)NCCCN4CCCC4)c3)CC2)c1" is ____.
1.9
